molecular target: human alpha2A receptors (Homo sapiens); experiment: cell-based
experimentalEndpoint: Kb

Inquiry: Find the recorded Kb belonging to "Cc1nc2cncnc2n1[C@H]1CCCN(C[C@H]2COc3ccccc3O2)C1" and report it.
Reply text: > 449 nM

Inquiry: Find the recorded Kb belonging to "O=C1N(c2ccccc2)CCN1[C@H]1CCCN(C[C@H]2COc3ccccc3O2)C1" and report it.
Reply text: > 449 nM

----------
target: UniProt P18825; assay: Determination of alpha2C antagonistic activity in vitro (FLIPR calcium assay); conditions: Alpha 2C Adrenaline Kb, Kb calculated from IC50 with the Cheng-Prusoff equation; adrenaline as agonist; CHO cells, human alpha2C
experimentalEndpoint: Kb (nM)
Quick note: give the figure in nM, leave out the unit.

Inquiry: Find the recorded Kb belonging to "C[C@]1(c2ccccc2)CCN([C@H]2CCCN(C[C@H]3COc4ccccc4O3)C2)C1=O" and report it.
Reply text: 0.005

We now examine a further molecule.
Inquiry: Find the recorded Kb belonging to CC1C(=O)N([C@H]2CCCN(C[C@H]3COc4ccccc4O3)C2)C(=O)N1C (stereo partly shown) and report it.
Reply text: 0.21

----------
Target: human alpha2A receptors (Homo sapiens)
Sequence (P08913 1-465): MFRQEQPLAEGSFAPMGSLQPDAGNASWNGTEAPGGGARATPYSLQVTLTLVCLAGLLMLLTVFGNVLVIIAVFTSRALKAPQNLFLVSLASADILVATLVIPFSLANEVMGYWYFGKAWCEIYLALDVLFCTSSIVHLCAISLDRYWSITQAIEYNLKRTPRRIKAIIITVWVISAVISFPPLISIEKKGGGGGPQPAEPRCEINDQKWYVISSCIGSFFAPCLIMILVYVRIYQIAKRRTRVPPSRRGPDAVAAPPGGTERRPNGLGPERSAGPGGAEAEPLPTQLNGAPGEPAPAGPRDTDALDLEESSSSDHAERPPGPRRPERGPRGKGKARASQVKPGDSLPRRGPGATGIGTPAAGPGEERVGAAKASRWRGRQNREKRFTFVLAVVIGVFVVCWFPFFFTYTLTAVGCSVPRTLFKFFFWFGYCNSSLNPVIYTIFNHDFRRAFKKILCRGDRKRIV
Experiment: cell-based
Where a name gives a salt, the structure may show the parent alone.
experimentalEndpoint: Kb

A selection of reference data follows.
Inquiry: // fetch human alpha2A receptors (Homo sapiens) Kb for "CN1C(=O)N([C@H]2CCCN(C[C@H]3COc4ccccc4O3)C2)C(=O)C12CC2"
Reply text: > 449 nM

Inquiry: // fetch human alpha2A receptors (Homo sapiens) Kb for "Cc1nc2ccccc2n1[C@H]1CCCN(C[C@H]2COc3ccccc3O2)C1"
Reply text: 201 nM

Inquiry: // fetch human alpha2A receptors (Homo sapiens) Kb for "COCc1nc2ccccc2n1[C@H]1CCCN(C[C@H]2COc3ccccc3O2)C1"
Reply text: 276 nM

Continuing:
Inquiry: // fetch human alpha2A receptors (Homo sapiens) Kb for "Cn1ncc2c1C(=O)N([C@H]1CCCN(C[C@H]3COc4ccccc4O3)C1)C2"
Reply text: > 449 nM

Inquiry: // fetch human alpha2A receptors (Homo sapiens) Kb for "O=S1(=O)c2ccccc2CN1[C@H]1CCCN(C[C@H]2COc3ccccc3O2)C1"
Reply text: > 449 nM

Inquiry: // fetch human alpha2A receptors (Homo sapiens) Kb for "CC(C)CN1C(=O)C(=O)N([C@H]2CCCN(C[C@H]3COc4ccccc4O3)C2)C1=O"
Reply text: > 449 nM

Inquiry: // fetch human alpha2A receptors (Homo sapiens) Kb for "O=C1C(=O)N([C@H]2CCCN(C[C@H]3COc4ccccc4O3)C2)C(=O)N1c1ccccc1"
Reply text: > 449 nM

Inquiry: // fetch human alpha2A receptors (Homo sapiens) Kb for O=C1C2=C(CCCC2)C(=O)N1[C@H]1CCCN(C[C@H]2COc3ccccc3O2)C1 [example 94, hydrochloride]
Reply text: > 449 nM

Inquiry: // fetch human alpha2A receptors (Homo sapiens) Kb for "CN(C)Cc1nc2ccc(Cl)cc2n1[C@H]1CCCN(C[C@H]2COc3ccccc3O2)C1"
Reply text: 13 nM

Inquiry: // fetch human alpha2A receptors (Homo sapiens) Kb for "O=C1C=C(c2ccccc2)CN1[C@H]1CCCN(C[C@H]2COc3ccccc3O2)C1"
Reply text: > 449 nM

Inquiry: // fetch human alpha2A receptors (Homo sapiens) Kb for "CN(C)C(=O)CN1C(=O)N([C@H]2CCCN(C[C@H]3COc4ccccc4O3)C2)C(=O)C12CC2"
Reply text: > 449 nM

Inquiry: // fetch human alpha2A receptors (Homo sapiens) Kb for "O=C1C(=O)N([C@H]2CCCN(C[C@H]3COc4ccccc4O3)C2)C(=O)N1Cc1cccnc1"
Reply text: > 449 nM

Inquiry: // fetch human alpha2A receptors (Homo sapiens) Kb for "O=C1C=C(c2ccc(F)cc2)CN1[C@H]1CCCN(C[C@H]2COc3ccccc3O2)C1"
Reply text: > 449 nM

Inquiry: // fetch human alpha2A receptors (Homo sapiens) Kb for "O=C1c2ncsc2CN1[C@H]1CCCN(C[C@H]2COc3ccccc3O2)C1"
Reply text: > 449 nM

Inquiry: // fetch human alpha2A receptors (Homo sapiens) Kb for "CC(C)N1C(=O)N([C@H]2CCCN(C[C@H]3COc4ccccc4O3)C2)C[C@H]1c1ccccc1"
Reply text: 443 nM

Inquiry: // fetch human alpha2A receptors (Homo sapiens) Kb for "O=C1N(Cc2ccccc2)CCN1[C@H]1CCCN(C[C@H]2COc3ccccc3O2)C1"
Reply text: 46 nM

----------
Target: human alpha2C receptors (Homo sapiens)
Sequence (P18825 1-462): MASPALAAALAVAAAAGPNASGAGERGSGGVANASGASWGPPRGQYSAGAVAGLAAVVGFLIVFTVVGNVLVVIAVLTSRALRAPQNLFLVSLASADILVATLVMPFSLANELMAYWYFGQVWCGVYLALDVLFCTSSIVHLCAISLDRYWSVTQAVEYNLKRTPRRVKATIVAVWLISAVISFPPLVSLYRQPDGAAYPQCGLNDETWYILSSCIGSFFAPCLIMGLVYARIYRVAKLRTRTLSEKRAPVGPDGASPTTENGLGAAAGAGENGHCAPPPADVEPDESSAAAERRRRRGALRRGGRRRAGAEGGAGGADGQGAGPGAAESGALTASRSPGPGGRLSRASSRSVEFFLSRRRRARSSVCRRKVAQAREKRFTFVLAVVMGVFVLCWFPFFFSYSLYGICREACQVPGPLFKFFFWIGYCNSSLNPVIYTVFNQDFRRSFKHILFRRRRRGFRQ
Test: Determination of alpha2C antagonistic activity in vitro (FLIPR calcium assay)
Settings: Alpha 2C Adrenaline Kb, Kb calculated from IC50 with the Cheng-Prusoff equation; adrenaline as agonist; CHO cells, human alpha2C
Counter-ions that a name gives are not always drawn.
// reported Kb for each item listed
Quick note: give the figure in nM, leave out the unit.

A selection of reference data follows.
Inquiry: Find the recorded Kb belonging to O=C1C(=O)N([C@H]2CCCN(C[C@H]3COc4ccccc4O3)C2)CC1c1ccccc1 (stereo partly shown) and report it.
Reply text: 0.153

Inquiry: Find the recorded Kb belonging to "CC(C)(C)N1C(=O)C(=O)N([C@H]2CCCN(C[C@H]3COc4ccccc4O3)C2)C1=O" and report it.
Reply text: 0.08

Inquiry: Find the recorded Kb belonging to "O=C1C(=O)N([C@H]2CCCN(C[C@H]3COc4ccccc4O3)C2)C(=O)N1C1CCCCC1" and report it.
Reply text: 0.001

Inquiry: Find the recorded Kb belonging to "CN(C)CCN1C(=O)C(=O)N([C@H]2CCCN(C[C@H]3COc4ccccc4O3)C2)C1=O" and report it.
Reply text: 44.7

Inquiry: Find the recorded Kb belonging to "CC(C)c1nc2ccc(F)cc2n1[C@H]1CCCN(C[C@H]2COc3ccccc3O2)C1" and report it.
Reply text: 127

Inquiry: Find the recorded Kb belonging to "CCN1C(=O)CC(=O)N([C@H]2CCCN(C[C@H]3COc4ccccc4O3)C2)C1=O" and report it.
Reply text: 1.52

Inquiry: Find the recorded Kb belonging to "CCN1CC(=O)N([C@H]2CCCN(C[C@H]3COc4ccccc4O3)C2)C1=O" and report it.
Reply text: 0.33

Inquiry: Find the recorded Kb belonging to CC(C)(C)C1CN([C@H]2CCCN(C[C@H]3COc4ccccc4O3)C2)C(=O)O1 (stereo partly shown) and report it.
Reply text: 0.024

Inquiry: Find the recorded Kb belonging to O=C1c2cccc(Cl)c2C(=O)N1[C@H]1CCCN(C[C@H]2COc3ccccc3O2)C1 [example 64, hydrochloride] and report it.
Reply text: 4.38

Inquiry: Find the recorded Kb belonging to "O=C1c2ncsc2CN1[C@H]1CCCN(C[C@H]2COc3ccccc3O2)C1" and report it.
Reply text: 2.26

Continuing:
Inquiry: Find the recorded Kb belonging to "CC(=O)N1CCC(N2C(=O)C(=O)N([C@H]3CCCN(C[C@H]4COc5ccccc5O4)C3)C2=O)CC1" and report it.
Reply text: 0.012

Inquiry: Find the recorded Kb belonging to "O=C1C(=O)N([C@H]2CCCN(C[C@H]3COc4ccccc4O3)C2)C(=O)N1Cc1ccccn1" and report it.
Reply text: 0.085

Inquiry: Find the recorded Kb belonging to "Cc1nc2c(F)cc(F)cc2n1[C@H]1CCCN(C[C@H]2COc3ccccc3O2)C1" and report it.
Reply text: 2.09

All figures here come from patent US20190152992A1.
